Molecular target: p-Akt1 in LNCaP cells (Homo sapiens)
Construct: SureFire assays to detect cellular p-Akt1, p-Akt2 and p-Akt3 levels in WM115 cells (Akt2/3) and LNCaP cells (Akt1); endogenous in cells; host or cells: LNCaP (ECACC 89110211)
Sequence (P31749 whole entry): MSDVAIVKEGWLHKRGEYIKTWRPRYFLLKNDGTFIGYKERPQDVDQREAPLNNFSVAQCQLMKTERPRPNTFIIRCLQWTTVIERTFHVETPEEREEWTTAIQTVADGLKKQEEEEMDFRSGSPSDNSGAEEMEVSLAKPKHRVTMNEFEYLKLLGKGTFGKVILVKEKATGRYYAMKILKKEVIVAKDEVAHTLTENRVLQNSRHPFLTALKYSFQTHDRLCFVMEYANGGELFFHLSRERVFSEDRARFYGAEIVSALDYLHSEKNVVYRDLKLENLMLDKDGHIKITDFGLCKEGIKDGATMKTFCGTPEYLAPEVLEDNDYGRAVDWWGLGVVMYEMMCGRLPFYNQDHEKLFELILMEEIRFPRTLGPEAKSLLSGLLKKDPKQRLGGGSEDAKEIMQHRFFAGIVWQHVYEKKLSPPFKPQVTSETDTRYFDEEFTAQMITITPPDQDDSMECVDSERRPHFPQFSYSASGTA
Assay: Phospho-Akt cellular SureFire assay, p-Akt1 in LNCaP cells
Assay type: cell-based
Settings: read-out: Biological Assay 2 IC50 (nM) Akt1 LNCaP
Recorded IC50 by entry

[
  {
    "compound": "CN(C(=O)C1CC1)[C@H]1CC[C@H](CC(=O)Nc2cc(-c3ccccc3)c(-c3ccc(C(C)(C)N)cc3)nn2)CC1 [Example A86]",
    "value.qualifier": ">",
    "IC50, nM": 21000
  },
  {
    "compound": "CN(C)C(=O)[C@H]1CC[C@H](CC(=O)Nc2cnc(-c3ccc(C(C)(C)N)cc3)c(-c3ccccc3)c2)CC1 [Example 55]",
    "value.qualifier": ">",
    "IC50, nM": 30000
  },
  {
    "compound": "CCC(=O)N(C)[C@H]1CC[C@H](CC(=O)Nc2cc(-c3ccccc3)c(-c3ccc([C@]4(N)C[C@](C)(O)C4)cc3)nn2)CC1 [Example 83]",
    "value.qualifier": "=",
    "IC50, nM": 820
  },
  {
    "compound": "CCC(=O)N(CC)[C@H]1CC[C@H](CC(=O)Nc2cc(-c3ccccc3)c(-c3ccc([C@]4(N)C[C@](C)(O)C4)cc3)nn2)CC1 [Example 113]",
    "value.qualifier": "=",
    "IC50, nM": 4100
  },
  {
    "compound": "CC(=O)N[C@H]1CC[C@H](CC(=O)Nc2cnc(-c3ccc(C4(N)CCC4)cc3)c(-c3ccsc3C)c2)CC1 [Example 18]",
    "value.qualifier": ">",
    "IC50, nM": 30000
  },
  {
    "compound": "CCC(=O)N(C)[C@H]1CC[C@H](CC(=O)Nc2cc(-c3ccsc3)c(-c3ccc([C@]4(N)C[C@](C)(O)C4)cc3)cn2)CC1 [Example 110]",
    "value.qualifier": "=",
    "IC50, nM": 8800
  }
]

---

# IC50 per record follows
Biological target: p-Akt1 in LNCaP cells (Homo sapiens)
Construct: SureFire assays to detect cellular p-Akt1, p-Akt2 and p-Akt3 levels in WM115 cells (Akt2/3) and LNCaP cells (Akt1); endogenous in cells; host or cells: LNCaP (ECACC 89110211)
Experiment: Phospho-Akt cellular SureFire assay, p-Akt1 in LNCaP cells
Format: cell-based
Settings: read-out: Biological Assay 2 IC50 (nM) Akt1 LNCaP

[
  {
    "smiles.structure": "CCC(=O)N(C)[C@H]1CC[C@H](CC(=O)Nc2cc(-c3ccccc3)c(-c3ccc([C@]4(N)C[C@](C)(O)C4)cc3)cn2)CC1",
    "unit.abbreviation": "nM",
    "value.qualifier": "=",
    "IC50": 2400
  },
  {
    "smiles.structure": "CC(=O)N(C)[C@H]1CC[C@H](CC(=O)Nc2cc(-c3ccccc3)c(-c3ccc(C(C)(C)N)cc3)nn2)CC1",
    "unit.abbreviation": "nM",
    "value.qualifier": ">",
    "IC50": 30000
  },
  {
    "smiles.structure": "CCC(=O)N(C(C)C)[C@H]1CC[C@H](CC(=O)Nc2cc(-c3ccccc3)c(-c3ccc([C@]4(N)C[C@](C)(O)C4)cc3)nn2)CC1",
    "unit.abbreviation": "nM",
    "value.qualifier": "=",
    "IC50": 1900
  },
  {
    "smiles.structure": "CCOC(=O)N(C)[C@H]1CC[C@H](CC(=O)Nc2cc(-c3ccccc3)c(-c3ccc([C@]4(N)C[C@](C)(O)C4)cc3)cn2)CC1",
    "unit.abbreviation": "nM",
    "value.qualifier": "=",
    "IC50": 2900
  },
  {
    "smiles.structure": "CC(=O)N(C)[C@H]1CC[C@H](CC(=O)Nc2cnc(-c3ccc(C(C)(C)N)cc3)c(-c3ccccc3)c2)CC1",
    "unit.abbreviation": "nM",
    "value.qualifier": ">",
    "IC50": 26000
  },
  {
    "smiles.structure": "CN(C(=O)C1CC1)[C@H]1CC[C@H](CC(=O)Nc2cc(-c3ccccc3)c(-c3ccc([C@]4(N)C[C@](C)(O)C4)cc3)nn2)CC1",
    "unit.abbreviation": "nM",
    "value.qualifier": "=",
    "IC50": 1400
  }
]

---

Target: p-Akt2 in WM115 cells (Homo sapiens, UniProt P31751)
Construct: SureFire assays to detect cellular p-Akt1, p-Akt2 and p-Akt3 levels in WM115 cells (Akt2/3) and LNCaP cells (Akt1); endogenous in cells; host or cells: WM115 (ECACC 91061232), insulin-stimulated
Sequence (P31751 whole entry): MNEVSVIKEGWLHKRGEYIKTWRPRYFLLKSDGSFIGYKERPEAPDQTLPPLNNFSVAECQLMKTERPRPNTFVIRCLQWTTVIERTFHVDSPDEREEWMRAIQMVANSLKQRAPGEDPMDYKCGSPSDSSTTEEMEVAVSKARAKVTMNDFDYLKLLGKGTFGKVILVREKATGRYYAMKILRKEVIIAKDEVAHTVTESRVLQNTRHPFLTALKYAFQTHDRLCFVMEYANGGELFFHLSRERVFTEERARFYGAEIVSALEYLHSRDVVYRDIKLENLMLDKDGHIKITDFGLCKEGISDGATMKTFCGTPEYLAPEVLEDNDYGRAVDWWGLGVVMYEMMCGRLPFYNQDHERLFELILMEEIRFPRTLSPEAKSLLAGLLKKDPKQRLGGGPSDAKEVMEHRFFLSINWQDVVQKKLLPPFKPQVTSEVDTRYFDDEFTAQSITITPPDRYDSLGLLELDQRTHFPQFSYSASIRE
Assay: Phospho-Akt cellular SureFire assay, p-Akt2 in WM115 cells
Assay type: cell-based
Details: insulin stimulated, read-out: Biological Assay 2 IC50 (nM) Akt2 WM115
Entries and their IC50 values follow.

[
  {
    "smiles.structure": "CCN(C(C)=O)[C@H]1CC[C@H](CC(=O)Nc2cc(-c3ccccc3)c(-c3ccc([C@]4(N)C[C@](C)(O)C4)cc3)cn2)CC1",
    "subject.of.test": "p-Akt2 in WM115 cells (Homo sapiens, UniProt P31751)",
    "IC50": "670 nM"
  },
  {
    "smiles.structure": "NC1(c2ccc(-c3ncc(NC(=O)C[C@H]4CC[C@H](N5CCOC5=O)CC4)cc3-c3ccccc3)cc2)CC(F)(F)C1",
    "subject.of.test": "p-Akt2 in WM115 cells (Homo sapiens, UniProt P31751)",
    "IC50": "2600 nM"
  },
  {
    "smiles.structure": "NC1(c2ccc(-c3ncc(NC(=O)C[C@H]4CC[C@H](N5CCCC5=O)CC4)cc3-c3ccsc3)cc2)CCC1",
    "subject.of.test": "p-Akt2 in WM115 cells (Homo sapiens, UniProt P31751)",
    "IC50": "2700 nM"
  }
]

---

Biological target: Akt3 (Homo sapiens, UniProt Q9Y243)
Construct: unspecified tag, removed (detagged) (cleaved yes); purchased SignalChem and Proteros (Akt3); Merck Millipore (PDK1) 14-452 (PDK1); none given for Akt3
Sequence (Q9Y243 whole entry): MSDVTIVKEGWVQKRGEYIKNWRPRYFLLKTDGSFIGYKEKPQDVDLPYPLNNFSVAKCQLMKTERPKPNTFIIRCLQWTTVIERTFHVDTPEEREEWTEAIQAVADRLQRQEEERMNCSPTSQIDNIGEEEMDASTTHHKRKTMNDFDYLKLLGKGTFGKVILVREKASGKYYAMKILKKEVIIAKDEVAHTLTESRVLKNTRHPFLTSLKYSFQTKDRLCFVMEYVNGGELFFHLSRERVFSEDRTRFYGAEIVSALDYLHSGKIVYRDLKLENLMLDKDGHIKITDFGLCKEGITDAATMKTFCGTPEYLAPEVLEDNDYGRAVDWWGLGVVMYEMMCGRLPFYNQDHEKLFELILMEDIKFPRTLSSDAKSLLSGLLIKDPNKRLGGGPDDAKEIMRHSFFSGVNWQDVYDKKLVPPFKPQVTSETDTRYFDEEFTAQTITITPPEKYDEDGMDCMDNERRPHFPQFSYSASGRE
Experiment: Akt activation assay (PDK1-mediated activation, LANCE Ultra crosstide TR-FRET), Akt3
Type: biochemical
Details: read-out: Biological Assay 1 IC50 (nM) Akt3

[
  {
    "compound": "C[C@@H]1CC(CC(=O)Nc2cnc(-c3ccc(C4(N)COC4)cc3)c(-c3ccccc3)c2)C[C@H](C)O1 (some centres unmarked)",
    "subject.of.test": "Akt3 (Homo sapiens, UniProt Q9Y243)",
    "IC50 [nM]": 210
  },
  {
    "compound": "CC(=O)N(C)[C@H]1CC[C@H](CC(=O)Nc2cc(-c3ccccc3)c(-c3ccc(C4(N)CCC4)cc3)nn2)CC1",
    "subject.of.test": "Akt3 (Homo sapiens, UniProt Q9Y243)",
    "IC50 [nM]": 7
  },
  {
    "compound": "CC(=O)N(C)[C@H]1CC[C@H](CC(=O)Nc2cnc(-c3ccc(C4(N)CC(F)(F)C4)cc3)c(-c3ccccc3)c2)CC1",
    "subject.of.test": "Akt3 (Homo sapiens, UniProt Q9Y243)",
    "IC50 [nM]": 110
  },
  {
    "compound": "CN([C@H]1CC[C@H](CC(=O)Nc2cnc(-c3ccc(C4(N)CCC4)cc3)c(-c3ccccc3F)c2)CC1)S(C)(=O)=O",
    "subject.of.test": "Akt3 (Homo sapiens, UniProt Q9Y243)",
    "IC50 [nM]": 210
  },
  {
    "compound": "CC(C)(N)c1ccc(-c2ncc(NC(=O)C[C@H]3CC[C@H](N4CCCC4=O)CC3)cc2-c2ccccc2)cc1",
    "subject.of.test": "Akt3 (Homo sapiens, UniProt Q9Y243)",
    "IC50 [nM]": 300
  },
  {
    "compound": "NC1(c2ccc(-c3ncc(NC(=O)C[C@H]4CC[C@H](N5CCCCC5=O)CC4)cc3-c3ccsc3)cc2)CCC1",
    "subject.of.test": "Akt3 (Homo sapiens, UniProt Q9Y243)",
    "IC50 [nM]": 170
  },
  {
    "compound": "CC(=O)N(C)[C@H]1CC[C@H](CC(=O)Nc2cnc(-c3ccc([C@]4(N)C[C@H](F)C4)cc3)c(-c3ccccc3)c2)CC1",
    "subject.of.test": "Akt3 (Homo sapiens, UniProt Q9Y243)",
    "IC50 [nM]": 34
  },
  {
    "compound": "NC1(c2ccc(-c3cnc(NC(=O)C[C@H]4CC[C@H](N5CCOC5=O)CC4)cc3-c3ccccc3F)cc2)CCC1",
    "subject.of.test": "Akt3 (Homo sapiens, UniProt Q9Y243)",
    "IC50 [nM]": 17
  },
  {
    "compound": "C[C@]1(O)C[C@@](N)(c2ccc(-c3nnc(NC(=O)C[C@H]4CC[C@H](N5CCCCC5=O)CC4)cc3-c3ccccc3)cc2)C1",
    "subject.of.test": "Akt3 (Homo sapiens, UniProt Q9Y243)",
    "IC50 [nM]": 4
  },
  {
    "compound": "CC(=O)N(C)[C@H]1CC[C@H](CC(=O)Nc2cc(-c3ccccc3F)c(-c3ccc([C@]4(N)C[C@](C)(O)C4)cc3)cn2)CC1",
    "subject.of.test": "Akt3 (Homo sapiens, UniProt Q9Y243)",
    "IC50 [nM]": 11
  },
  {
    "compound": "COC(=O)N(C)[C@H]1CC[C@H](CC(=O)Nc2cnc(-c3ccc(C4(N)CC4)c(F)c3)c(-c3ccccc3)c2)CC1",
    "subject.of.test": "Akt3 (Homo sapiens, UniProt Q9Y243)",
    "IC50 [nM]": 170
  },
  {
    "compound": "C[C@]1(O)C[C@@](N)(c2ccc(-c3nnc(NC(=O)C[C@H]4CC[C@H](N5CCOC5=O)CC4)cc3-c3ccccc3)cc2)C1",
    "subject.of.test": "Akt3 (Homo sapiens, UniProt Q9Y243)",
    "IC50 [nM]": 3
  },
  {
    "compound": "CN(C(=O)C(F)F)[C@H]1CC[C@H](CC(=O)Nc2cc(-c3ccccc3)c(-c3ccc([C@]4(N)C[C@](C)(O)C4)cc3)cn2)CC1",
    "subject.of.test": "Akt3 (Homo sapiens, UniProt Q9Y243)",
    "IC50 [nM]": 12
  },
  {
    "compound": "CC(=O)N(C)[C@H]1CC[C@H](CC(=O)Nc2cnc(-c3ccc(C4(N)CCC4)cc3)c(-c3ccccc3F)c2)CC1",
    "subject.of.test": "Akt3 (Homo sapiens, UniProt Q9Y243)",
    "IC50 [nM]": 24
  },
  {
    "compound": "CC(=O)N(C)[C@H]1CC[C@H](CC(=O)Nc2cc(-c3ccccc3)c(-c3ccc([C@]4(N)C[C@H](F)C4)cc3)cn2)CC1",
    "subject.of.test": "Akt3 (Homo sapiens, UniProt Q9Y243)",
    "IC50 [nM]": 28
  },
  {
    "compound": "COC(=O)N(C)[C@H]1CC[C@H](C(C)C(=O)Nc2cnc(-c3ccc(C4(N)CCC4)cc3)c(-c3ccccc3)c2)CC1 (relative stereo)",
    "subject.of.test": "Akt3 (Homo sapiens, UniProt Q9Y243)",
    "IC50 [nM]": 280
  },
  {
    "compound": "C[C@]1(O)C[C@@](N)(c2ccc(-c3cnc(NC(=O)C[C@H]4CC[C@H](N5CCCC5=O)CC4)cc3-c3ccccc3)cc2)C1",
    "subject.of.test": "Akt3 (Homo sapiens, UniProt Q9Y243)",
    "IC50 [nM]": 7
  },
  {
    "compound": "CC(C)(N)c1ccc(-c2cnc(NC(=O)C[C@H]3CC[C@H](N4CCOC4=O)CC3)cc2-c2ccsc2)cc1",
    "subject.of.test": "Akt3 (Homo sapiens, UniProt Q9Y243)",
    "IC50 [nM]": 640
  },
  {
    "compound": "CC(=O)N(C)[C@H]1CC[C@H](CC(=O)Nc2cc(-c3ccccc3)c(-c3ccc(C(C)(C)N)cc3)cn2)CC1",
    "subject.of.test": "Akt3 (Homo sapiens, UniProt Q9Y243)",
    "IC50 [nM]": 300
  },
  {
    "compound": "CC(C)(N)c1ccc(-c2ncc(NC(=O)C[C@H]3CC[C@H](NC(=O)C4CC4)CC3)cc2-c2ccccc2)cc1",
    "subject.of.test": "Akt3 (Homo sapiens, UniProt Q9Y243)",
    "IC50 [nM]": 55
  },
  {
    "compound": "CCN(C(=O)OC)[C@H]1CC[C@H](CC(=O)Nc2cc(-c3ccccc3)c(-c3ccc([C@]4(N)C[C@](C)(O)C4)cc3)nn2)CC1",
    "subject.of.test": "Akt3 (Homo sapiens, UniProt Q9Y243)",
    "IC50 [nM]": 7
  },
  {
    "compound": "NC1(c2ccc(-c3ncc(NC(=O)C[C@H]4CC[C@H](N5CCOC5=O)CC4)cc3-c3ccccc3)cc2)CCC1",
    "subject.of.test": "Akt3 (Homo sapiens, UniProt Q9Y243)",
    "IC50 [nM]": 19
  },
  {
    "compound": "NC1(c2ccc(-c3nnc(NC(=O)C[C@H]4CC[C@H](N5CCOC5=O)CC4)cc3-c3ccccc3)cc2)CC(F)(F)C1",
    "subject.of.test": "Akt3 (Homo sapiens, UniProt Q9Y243)",
    "IC50 [nM]": 17
  },
  {
    "compound": "COCCN(C)[C@H]1CC[C@H](CC(=O)Nc2cnc(-c3ccc(C4(N)CCC4)cc3)c(-c3ccsc3)c2)CC1",
    "subject.of.test": "Akt3 (Homo sapiens, UniProt Q9Y243)",
    "IC50 [nM]": 2300
  },
  {
    "compound": "Cc1nncn1[C@H]1CC[C@H](CC(=O)Nc2cnc(-c3ccc(C4(N)CCC4)cc3)c(-c3ccccc3)c2)CC1",
    "subject.of.test": "Akt3 (Homo sapiens, UniProt Q9Y243)",
    "IC50 [nM]": 62
  },
  {
    "compound": "CC(C)(N)c1ccc(-c2nnc(NC(=O)C[C@H]3CC[C@H](N4CCOC4=O)CC3)nc2-c2ccccc2)cc1",
    "subject.of.test": "Akt3 (Homo sapiens, UniProt Q9Y243)",
    "IC50 [nM]": 1800
  }
]
